Biological target: Bombesin receptor subtype-3 (Homo sapiens, UniProt P32247)
Sequence (P32247 whole entry): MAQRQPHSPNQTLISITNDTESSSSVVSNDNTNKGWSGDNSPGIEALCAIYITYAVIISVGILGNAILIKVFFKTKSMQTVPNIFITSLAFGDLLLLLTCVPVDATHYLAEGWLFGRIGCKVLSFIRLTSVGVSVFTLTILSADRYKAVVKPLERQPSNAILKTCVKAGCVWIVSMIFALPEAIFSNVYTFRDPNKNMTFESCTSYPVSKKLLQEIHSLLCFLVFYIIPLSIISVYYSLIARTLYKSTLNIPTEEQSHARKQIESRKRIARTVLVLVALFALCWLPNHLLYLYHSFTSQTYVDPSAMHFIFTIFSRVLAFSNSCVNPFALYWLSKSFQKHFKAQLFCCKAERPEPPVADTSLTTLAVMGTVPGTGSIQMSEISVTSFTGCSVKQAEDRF
Test: Agonist activity at human BRS3
PROPERTY MEASURED: EC50 (nM)

// worked examples, EC50 included
For the compound "CCC(C)(C)Cc1c[nH]c(CCc2ccc(-c3ccccc3OCc3nnn[nH]3)cc2)n1" , give its reported EC50.
30

Please supply the value of reported EC50 for the item "CCC(C)(C)Cc1cnc(CCc2ccc(N3CCCC[C@@H]3c3nnc[nH]3)cc2)[nH]1"
42

Name the recorded EC50 of the item "CCC(C)(C)Cc1cnc(CCc2ccc3c(c2)CN(C)C(=O)c2ccccc2-3)[nH]1" in your answer.
56

// fetch EC50 given entry "CCC(C)(C)Cc1c[nH]c(CCc2ccc(N3CCCC[C@@H]3c3nnn[nH]3)cc2)n1"
15

Hello, please tell me recorded EC50 for this one: "CCC(C)(C)Cc1cnc(CCc2ccc3c(c2)CNC(=O)c2ccccc2-3)[nH]1"
29

Please indicate EC50 recorded for "CCC(C)(C)Cc1c[nH]c(CCc2ccc(N3CCCc4cn[nH]c43)cc2)n1"
42

Supply EC50 value. Item: "CCC(C)(C)Cc1c[nH]c(CCc2ccc(-c3ccccc3O)cc2)n1"
133

Find the measured EC50 of "CCC(C)(C)Cc1c[nH]c(CCc2ccc(-c3ccccc3OCc3nc(=S)[nH][nH]3)cc2)n1" and report it.
41

1 = O=C1NC(=O)C(c2ccccc2-c2ccc(CCC3N=CC(CC4CCCC4)=N3)cc2)S1 (configuration not stated)
2 = CCC(C)(C)Cc1cnc(CCc2ccc(-c3ccccc3OCC(=O)O)cc2)[nH]1
3 = CCC(C)(C)Cc1c[nH]c(CCc2ccc(N3CCCC[C@@H]3C(=O)O)cc2)n1
Order the records, beginning with the lowest EC50 and ending with the highest. Please write the labels in the order that was asked for.
3, 2, 1
(3: 24 nM, 2: 54 nM, 1: 1770 nM)

P = CCC(C)(C)Cc1cnc(CCc2ccc(-c3ccccc3OCc3n[nH]c(=O)[nH]3)cc2)[nH]1
Q = CCC(C)(C)Cc1c[nH]c(CCc2ccc(-c3ccccc3OCc3nc(C(F)(F)F)n[nH]3)cc2)n1
R = c1ccc(-c2nnn[nH]2)c(-c2ccc(CCc3ncc(CC4CCCC4)[nH]3)cc2)c1
Provide the items ranked by increasing EC50. Form entry: ranked labels (order as requested).
R, Q, P

1 = CCC(C)(C)Cc1cnc(CCc2ccc(-c3ccccc3OCc3cnn[nH]3)cc2)[nH]1
2 = CCC(C)(C)Cc1c[nH]c(CCc2ccc(-c3ccccc3OCc3nc(N)n[nH]3)cc2)n1
Of 1 and 2 , whose reported EC50 is the larger number? Please indicate the selected item by its label.
1
(1: 399 nM, 2: 78 nM)

Numbers sourced from ChEMBL document CHEMBL1157884.
